Just for reference, patent US20240197902A1 is where these values come from.

# reported pKd; entries follow
Biological target: Q98A
Experiment: SPR; 25 C
Lab note: report pKd as minus log10 of the concentration in molar units, number only.

Past entries and their recorded results:
>  <binder>
Activin A (ligand) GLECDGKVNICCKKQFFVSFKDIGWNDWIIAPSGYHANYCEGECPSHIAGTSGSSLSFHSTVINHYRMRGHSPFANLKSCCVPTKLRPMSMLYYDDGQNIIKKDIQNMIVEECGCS

>  <pKd>
9.81

$$$$
>  <binder>
GDF11 (ligand) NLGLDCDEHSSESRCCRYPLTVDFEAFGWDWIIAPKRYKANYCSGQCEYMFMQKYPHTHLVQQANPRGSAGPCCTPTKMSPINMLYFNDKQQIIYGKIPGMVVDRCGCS

>  <pKd>
10.43

$$$$
>  <binder>
BMP10 (ligand) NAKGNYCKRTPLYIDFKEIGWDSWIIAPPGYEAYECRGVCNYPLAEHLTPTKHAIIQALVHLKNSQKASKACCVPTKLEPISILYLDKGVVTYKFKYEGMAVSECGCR

>  <pKd>
9.68

$$$$

Ask: Need pKd, item BMP9 (ligand) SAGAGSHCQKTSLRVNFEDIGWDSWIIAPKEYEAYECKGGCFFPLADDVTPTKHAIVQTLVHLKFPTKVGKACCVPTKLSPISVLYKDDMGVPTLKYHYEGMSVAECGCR
Reply: 10.37
